# Test system: TP53
# Method Notes: 3' UTR reporter interaction score (median-centred robust z-score of log2 firefly/Renilla activity); higher = less repression of the 3' UTR reporter
# Assay Context: HEK293T; 48 h
Mark Fulfilled for reported 3' UTR reporter interaction score of -0.2 or greater; mark Not fulfilled for anything smaller.

{"Sequence": "UCACUCCUCUCCUCCCGUCUUCU", "Target Desc": "TP53", "Discrete Label": "Not fulfilled"}

Assess whether reported 3' UTR reporter interaction score for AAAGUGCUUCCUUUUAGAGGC sits at -0.2 or higher.
Fulfilled

Form field: 3' UTR reporter interaction score at least -0.2? Entry: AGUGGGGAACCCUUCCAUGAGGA
Not fulfilled

Tell me whether 3' UTR reporter interaction score is at least -0.2 here: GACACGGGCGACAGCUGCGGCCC
Fulfilled

---

# Test system: MYC
# Method Notes: 3' UTR reporter interaction score (median-centred robust z-score of log2 firefly/Renilla activity); higher = less repression of the 3' UTR reporter
# Assay Context: HEK293T; 48 h
Mark no for 3' UTR reporter interaction score values under -0.3, and yes for everything at or above.

{"Sequence": "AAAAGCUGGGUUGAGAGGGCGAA", "Discrete Label": "yes"}

Determine whether this sequence has 3' UTR reporter interaction score no lower than -0.3: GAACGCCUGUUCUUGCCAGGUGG
yes

Kindly determine if 3' UTR reporter interaction score recorded for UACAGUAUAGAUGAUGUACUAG is above or exactly -0.3.
yes

Entry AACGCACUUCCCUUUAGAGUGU : is its 3' UTR reporter interaction score no less than -0.3?
no

Could you tell me if the measured 3' UTR reporter interaction score of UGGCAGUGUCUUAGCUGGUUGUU reaches -0.3 or more?
no

---

Reported 3' UTR reporter interaction score is given for each of the following sequences.
# Test system: HRAS
# Method Notes: 3' UTR reporter interaction score (median-centred robust z-score of log2 firefly/Renilla activity); higher = less repression of the 3' UTR reporter
# Assay Context: HEK293T; 48 h
I only need the number, thanks.

{"Sequence": "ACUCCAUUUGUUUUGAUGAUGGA", "3' UTR reporter interaction score": -0.269}
{"Sequence": "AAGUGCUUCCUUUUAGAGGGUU", "3' UTR reporter interaction score": -0.113}
{"Sequence": "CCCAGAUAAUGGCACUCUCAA", "3' UTR reporter interaction score": 0.111}
{"Sequence": "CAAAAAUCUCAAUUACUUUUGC", "3' UTR reporter interaction score": -0.151}
{"Sequence": "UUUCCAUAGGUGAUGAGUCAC", "3' UTR reporter interaction score": 0.654}

Answer with the recorded 3' UTR reporter interaction score for the sequence listed here: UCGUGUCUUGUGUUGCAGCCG
-0.272

Quickly give me recorded 3' UTR reporter interaction score for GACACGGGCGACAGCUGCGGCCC
0.13

Tell us which 3' UTR reporter interaction score value is on record for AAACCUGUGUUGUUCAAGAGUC
0.374

---

# Tested on: BRCA2
# Method Notes: 3' UTR reporter interaction score (median-centred robust z-score of log2 firefly/Renilla activity); higher = less repression of the 3' UTR reporter
# Assay Context: HEK293T; 48 h
Recorded Endpoint: 3' UTR reporter interaction score
Reply briefly: the number, and no unit.

Completed entries (count: 2):
{"Sequence": "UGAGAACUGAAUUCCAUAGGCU", "Target Desc": "BRCA2", "Recorded Endpoint": "3' UTR reporter interaction score", "Result": -1.45}
{"Sequence": "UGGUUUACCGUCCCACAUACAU", "Target Desc": "BRCA2", "Recorded Endpoint": "3' UTR reporter interaction score", "Result": -0.68}

// moving on: another record for 3' UTR reporter interaction score
Name the recorded 3' UTR reporter interaction score of the item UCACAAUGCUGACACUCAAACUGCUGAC in your answer.
-3.53
